- Tested on: SK-OV-3
- test: NCI tumour cell line growth inhibition, 48 h
Activity calls are given as the source filed them. No stated cut-off is given here; in the data, active = GI50 up to about 1.1 µM and inactive = higher.
I would appreciate it if you answered using one of these outcomes: active, inactive

# example entries with known answers
compound=Oc1cc(-c2cccc3ccccc23)nc2ncccc12 class_name=active
compound=CP1(=O)CCCCC1 class_name=inactive
compound=C[C@@]12CC[C@H]3[C@@H]4CCC(=O)N[C@@]4(C)CC[C@@H]3[C@@]1(C)CC[C@H](OC(=O)Cc1ccc(N(CCCl)CCCl)cc1)C2 class_name=inactive
compound="CC12OC3(O)C4C5CC(C6C5C3C61)C42 (stereo not given)" class_name=inactive
compound="O=c1n(CC2CO2)c(=O)n(CC2CO2)c(=O)n1CC1CO1 (stereo not given)" class_name=inactive

Next:
q: Please let me know the test result on file for O=C(NCCO)c1ccc([N+](=O)[O-])cc1 .
a: inactive

====

- Tested on: COLO 205
- test: NCI tumour cell line growth inhibition, 48 h
Calls of active or inactive are those of the source. No stated cut-off is given here; in the data, active = GI50 up to about 1.1 µM and inactive = higher.
Would you mind answering with one of these outcomes? active, inactive

compound=Clc1ccc(-c2nn3c(COc4ccc(OCc5nnc6sc(-c7ccc(Cl)cc7)nn56)c(Cl)c4)nnc3s2)cc1 tested_system="COLO 205" class_name=inactive

q: What is the recorded call for this compound in the test? O=C(Nc1noc(-c2ccccc2)n1)c1ccccc1CNc1noc(-c2ccccc2)n1
a: inactive

q: For CC(C)(CCC(C)(C)c1ccccc1)c1ccccc1 , which call appears in the assay record?
a: inactive

q: Dear all, I need the recorded test outcome for CSc1nc(C)c(Br)c(=O)n1C1OC(COC(C)=O)C(OC(C)=O)C(OC(C)=O)C1OC(C)=O (stereo not given) , thank you.
a: inactive

q: Could you please tell me the result logged for CCOP(=O)(OCC)C1CCCCOC1=O (stereo not given) in this assay?
a: inactive

q: Hi team, can someone confirm the assay call for CC(=O)Nc1ccc(S(=O)(=O)N/N=C/CN2C(=O)c3ccccc3C2=O)cc1 ?
a: inactive

q: Record request — test call for C=CC(=O)Nc1ccccc1CC(c1c[nH]c2ccccc12)c1c[nH]c2ccccc12
a: inactive

q: For BrC1(c2ccccc2)C[n+]2c(-c3ccccc3)cc(-c3ccccc3)cc2-c2ccccc21 (stereo not given) , what call appears in the results of this test?
a: active

q: Any idea what this test logged for Oc1cc(-c2cccc3ccccc23)nc2ncccc12 ?
a: active

q: For N#CCN(Cc1ccccc1)[C@@H]1CCC[C@]1(O)C#Cc1ccc2c(c1)OCO2 , what call appears in the results of this test?
a: inactive

====

Measured GI50 values are reported for all entries that follow.
- Tested on: NCI-H23
- test: NCI tumour cell line growth inhibition, 48 h
Calls of active or inactive are those of the source. Rule as the data show it: active = GI50 up to about 1.1 µM and inactive = higher.

Solved cases below.
compound=Cc1c(S(=O)(=O)N/C(=N\O)Nc2ccc(Cl)c(Cl)c2)sc2ccc(Cl)cc12 observed_property=GI50 endpoint_value="17.8 µM (inactive)"
compound=Cc1cc(=O)oc2cc(OCc3nc4ccccc4c(=O)n3-c3ccccc3)ccc12 observed_property=GI50 endpoint_value="> 100 µM (inactive)"
compound=O=C(Nc1noc(-c2ccccc2)n1)c1ccccc1CNc1noc(-c2ccccc2)n1 observed_property=GI50 endpoint_value="> 100 µM (inactive)"
compound=Cc1ccc([Se](=C(C(=O)c2ccccc2)C(=O)c2ccccc2)c2ccc(C)cc2)cc1 observed_property=GI50 endpoint_value="18.8 µM (inactive)"

Attention now shifts to the item below.
q: Notebook entry, NCI-H23 assay: GI50 of Fc1ccc(C(OCCN2CC3CC2CN3)c2ccc(F)cc2)cc1 (stereo not given) = ?
a: > 100 µM (inactive)

====

- Tested on: U-251
- test: NCI tumour cell line growth inhibition, 48 h
Activity calls are given as the source filed them. No stated cut-off is given here; in the data, active = GI50 up to about 1.1 µM and inactive = higher.
observed property: GI50

molecule="C[C@@H]1CC[C@@]2(OC1)O[C@H]1[C@@H](O)[C@H]3[C@@H]4CC[C@H]5C[C@@H](O[C@@H]6O[C@H](CO)[C@H](O[C@@H]7O[C@H](CO)C(O)[C@H](O[C@@H]8OC[C@@H](O)[C@H](O)[C@H]8O)[C@H]7O[C@@H]7O[C@H](CO)[C@H](O)[C@H](O[C@@H]8O[C@H](CO)[C@@H](O)[C@H](O)[C@H]8O)[C@H]7O)[C@H](O)[C@H]6O)[C@H](O)C[C@]5(C)[C@H]4CC[C@]3(C)[C@H]1[C@@H]2C (stereo partly drawn) [DIGITONIN]" endpoint_value="3.43 µM (inactive)"
molecule="COc1ccc(N2C(=O)C3c4[nH]c5ccc(OC)cc5c4C4CCC(c5ccccc5)CC4C3C2=O)cc1 (stereo not drawn)" endpoint_value="8.99 µM (inactive)"
molecule="CNC(C#N)c1ccc(OC)cc1 (stereo not drawn)" endpoint_value="53.3 µM (inactive)"
molecule="CC12OC3(O)C4C5CC(C6C5C3C61)C42 (stereo not drawn)" endpoint_value="> 100 µM (inactive)"

Shift focus to the following entry.
q: Please state recorded GI50 (tested on U-251) of CCOC(=O)c1sc2nc(SC)nc3c2c1NCN3C1CC1
a: > 100 µM (inactive)

====

- System: SNB-78
- test: NCI tumour cell line growth inhibition, 48 h
Activity calls are given as the source filed them. Cut-off read from the data, not from the text of the source: active = GI50 up to about 1.1 µM and inactive = higher.
observed property: GI50

compound=CCCc1onc(CCC(=O)N(Cc2ccccc2)Cc2ccccc2)c1CC endpoint_value="> 100 µM (inactive)"
compound="CCCCCCCCC(O)C#CC(N)=O (stereo not given)" endpoint_value="15.6 µM (inactive)"
compound=Cc1ccc(NC(=O)CC/C(CC(=O)C(C)(C)C)=N/NC(=O)C[N+](C)(C)C)cc1C endpoint_value="> 100 µM (inactive)"

Lab note: next compound to report on.
q: Any idea what its GI50 is? The compound is O=c1c2cccc3cccc(c4oc5c6cccc7cccc(c(=O)c5c14)c76)c32
a: 13.7 µM (inactive)

====

- Tested on: HL-60
- test: NCI tumour cell line growth inhibition, 48 h
Active and inactive are the calls of the source. No stated cut-off is given here; in the data, active = GI50 up to about 1.1 µM and inactive = higher.
GI50: recorded values

Worked examples, 4 molecules total:
molecule="C=CCCCCCCCCCP(=O)(c1ccccc1)c1ccc2c(c1)OCCOCCOCCOCCO2 (stereo not given)" endpoint_value="5.18 µM (inactive)"
molecule=CCOC(=O)c1cc(=O)c2ccnc3c2n1CCS3 endpoint_value="> 100 µM (inactive)"
molecule=CN(C)CCCn1c(Cn2nc3ccccc3n2)nc2cc(C(F)(F)F)ccc21 endpoint_value="1.69 µM (inactive)"
molecule=Cc1cc(C)nc(NS(=O)(=O)c2ccc(Nc3c4ccccc4nc4c(C(=O)N5CCN(CCOS(C)(=O)=O)CC5)ccc(Cl)c34)cc2)n1 endpoint_value="> 100 µM (inactive)"

Now consider the entry below.
q: Recorded GI50 of O=C(C(=O)c1cc2ccccc2[nH]1)c1cc2ccccc2[nH]1 , please.
a: 195 µM (inactive)

====

Catalogue of GI50 values
- Test system: SF-295
- test: NCI tumour cell line growth inhibition, 48 h
Activity calls are given as the source filed them. Cut-off read from the data, not from the text of the source: active = GI50 up to about 1.1 µM and inactive = higher.

compound=CN(C)CCCSc1c2ccccc2nc2cc(NCC(=O)Nc3ccccc3-c3ccccc3NC(=O)CNc3ccc4c(SCCCN(C)C)c5ccccc5nc4c3)ccc12 endpoint_value="> 100 µM (inactive)"
compound="O=c1[nH]c(=O)n(C2CC(O)C(CO)O2)cc1OCCCc1ccccc1 (centres undefined)" endpoint_value="> 100 µM (inactive)"
compound=C=CC(=O)Nc1ccccc1CC(c1c[nH]c2ccccc12)c1c[nH]c2ccccc12 endpoint_value="22.1 µM (inactive)"
compound="COc1cc(C2c3[nH]c4ccc(F)cc4c3C[C@H]3COC(=O)N23)cc(OC)c1O (some centres undefined)" endpoint_value="12.1 µM (inactive)"

q: I have this compound here, CCC(=O)c1ccc2[nH]c3c(C)c4c(O)cc(C)nc4c(C)c3c2c1 , and I need its recorded GI50.
a: > 100 µM (inactive)

q: Form field: reported GI50 of O=c1c(-c2ccccc2)c(SCCCN2CCN(c3cccc(Cl)c3)CC2)n(-c2ccccc2)c(=S)n1-c1ccccc1
a: > 100 µM (inactive)

====

- Tested on: CAKI-1
- test: NCI tumour cell line growth inhibition, 48 h
Active and inactive are the calls of the source. Cut-off read from the data, not from the text of the source: active = GI50 up to about 1.1 µM and inactive = higher.
A correct response names exactly one class from active, inactive

For orientation, consider the following solved cases.
molecule=O=C1c2ccccc2C(=O)N1n1c(Cc2ccccc2)n[nH]c1=O class_name=inactive
molecule=Cc1ccc2nc(-c3ccc(N)c(Br)c3)sc2c1 class_name=inactive
molecule="COc1ccc(CNC(C)C(=O)O)cc1 (stereo not drawn)" class_name=inactive

Now look at this entry.
q: In this assay, the call recorded for C[C@]12CCC(=O)C=C1CC[C@@H]1[C@@H]2CC[C@]2(C)C(=O)NC(=O)C[C@@H]12 was what?
a: inactive

====

- System: OVCAR-4
- test: NCI tumour cell line growth inhibition, 48 h
Activity calls are given as the source filed them. No stated cut-off is given here; in the data, active = GI50 up to about 1.1 µM and inactive = higher.
observed property: GI50

q: # get_value(readout='GI50', item= CNC(C)C(O)c1ccc2oc3cc(=O)c4ccccc4c-3nc2c1 (centres undefined) )
a: 17.3 µM (inactive)

q: Bench note: what GI50 did Cc1cc(N(CCC#N)CCC#N)ccc1/C=C(\NC(=O)/C=C/c1ccccc1)NC(=O)Nc1ccccc1C show?
a: 26.8 µM (inactive)

q: State the recorded GI50 for this entry: Nc1nc(Cl)c2ncn(Cc3ccccc3CCl)c2n1
a: 2.48 µM (inactive)

q: Consider the compound shown here: CCCCCC(=O)OCC(=O)[C@H]1[C@H](C)C[C@H]2[C@@H]3C[C@H](F)C4=C/C(=N/OC(=O)c5cccc6c(=O)c7ccccc7[nH]c56)C=C[C@]4(C)[C@H]3[C@@H](O)C[C@@]21C What is its recorded GI50?
a: 27.4 µM (inactive)

q: Fill in the blank: the reported GI50 of N=c1c2ccccc2nc2oc3cc([N+](=O)[O-])ccc3n12 is ____.
a: 21.3 µM (inactive)

q: Would you mind telling me what GI50 value was observed for COc1cc(CCc2ccc(OCCN(C)C)cc2)cc(OC)c1OC ?
a: > 100 µM (inactive)

q: Query (compound): CN(C)CCCSc1c2ccccc2nc2cc(NCC(=O)Nc3ccccc3-c3ccccc3NC(=O)CNc3ccc4c(SCCCN(C)C)c5ccccc5nc4c3)ccc12 ; field requested: GI50
a: > 100 µM (inactive)

q: Need GI50 of CCCCCCNC(=O)CCN(C(=O)O)S(=O)(=O)c1ccc(NC(=O)c2ccccc2)cc1 , thanks.
a: > 100 µM (inactive)

q: Using the record for CCCCCCCCCCCCCCCCNCCCN(C)CCCN , report its GI50.
a: 18.8 µM (inactive)
